system: 628569-122-R-J1-PDC complex spheroid viability; experiment: Anticancer human tumor 628569-122-R-J1-PDC patient-derived head and neck squamous carcinoma cell line growth inhibition [CLK]; conditions: second compound 1 µM; first compound 0.0316 µM; active compounds read low;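 also: spheroids exposed to agents for seven days before readout; 100% = DMSO vehicle control viability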
assay_readout: viability, T/C (%)
Numbers only, in %.

Some solved entries appear below for comparison.
compound	measured_result
C=C(F)C(=O)N1CCN(c2nc(OCC3CCCN3C)nc3c2CCN(c2cccc4cccc(Cl)c24)C3)CC1CC#N (stereo not given) + CNC(=O)c1ccc(Nc2nc(OC3CCCC3)c3c(-c4ccc5nc(C)oc5c4)c[nH]c3n2)c(OC)c1	46.5
C=CC(=O)N1CCN(c2nc(=O)n(-c3c(C)ccnc3C(C)C)c3nc(-c4c(O)cccc4F)c(F)cc23)C(C)C1 (stereo not given) + CNC(=O)c1ccc(Nc2nc(OC3CCCC3)c3c(-c4ccc5nc(C)oc5c4)c[nH]c3n2)c(OC)c1	49.9
COC1C=CCC(C)C(C)S(=O)(=O)NC(=O)c2ccc3c(c2)N(CC2CCC21)CC1(CCCc2cc(Cl)ccc21)CO3 (stereo not given) + CNC(=O)c1ccc(Nc2nc(OC3CCCC3)c3c(-c4ccc5nc(C)oc5c4)c[nH]c3n2)c(OC)c1	51.2
COc1ccc([C@@H](O)c2cc(-c3ncnc4cc(N5CCOCC5)ccc34)c(F)cc2Cl)nn1 + CNC(=O)c1ccc(Nc2nc(OC3CCCC3)c3c(-c4ccc5nc(C)oc5c4)c[nH]c3n2)c(OC)c1	46.8
CC(=O)O[C@H]1C(=O)[C@@]2(C)[C@H]([C@H](OC(=O)c3ccccc3)[C@]3(O)C[C@H](OC(=O)[C@H](O)[C@@H](NC(=O)c4ccccc4)c4ccccc4)C(C)=C1C3(C)C)[C@]1(OC(C)=O)CO[C@@H]1C[C@@H]2O + CN1CCN(c2cc(C(=O)Nc3cc4cc(-c5cnn(C)c5)ccc4cn3)ccn2)CC1	4.9
CC1COCCN1c1cc(C2(S(C)(=N)=O)CC2)nc(-c2ccnc3[nH]ccc23)n1 (stereo not given) + CN1CCN(c2cc(C(=O)Nc3cc4cc(-c5cnn(C)c5)ccc4cn3)ccn2)CC1	9.71
COc1cccc2c1C(=O)c1c(O)c3c(c(O)c1C2=O)CC(O)(C(=O)CO)CC3OC1CC(N)C(O)C(C)O1 (stereo not given) + CN1CCN(c2cc(C(=O)Nc3cc4cc(-c5cnn(C)c5)ccc4cn3)ccn2)CC1	7.46
O=c1[nH]cc(F)c(=O)[nH]1 + CNC(=O)c1ccc(Nc2nc(OC3CCCC3)c3c(-c4ccc5nc(C)oc5c4)c[nH]c3n2)c(OC)c1	43.5

Look at each compound and report its viability, T/C.
1. CC(=O)O[C@H]1C(=O)[C@@]2(C)[C@H]([C@H](OC(=O)c3ccccc3)[C@]3(O)C[C@H](OC(=O)[C@H](O)[C@@H](NC(=O)c4ccccc4)c4ccccc4)C(C)=C1C3(C)C)[C@]1(OC(C)=O)CO[C@@H]1C[C@@H]2O + CNC(=O)c1ccc(Nc2nc(OC3CCCC3)c3c(-c4ccc5nc(C)oc5c4)c[nH]c3n2)c(OC)c1
2. O=C(c1cc(Cc2n[nH]c(=O)c3ccccc23)ccc1F)N1CCN(C(=O)C2CC2)CC1 + CN1CCN(c2cc(C(=O)Nc3cc4cc(-c5cnn(C)c5)ccc4cn3)ccn2)CC1

a:
[41.4, 9.74]
